Data origin, for the record: patent US20200247894A1

- System Tested: T1, mouse IL-2Rγ endogenously expressed on MC/9 cells (mouse, UniProt P34902 23-369)
- T1 construct: whole, on cells
- T1 sequence (looked up): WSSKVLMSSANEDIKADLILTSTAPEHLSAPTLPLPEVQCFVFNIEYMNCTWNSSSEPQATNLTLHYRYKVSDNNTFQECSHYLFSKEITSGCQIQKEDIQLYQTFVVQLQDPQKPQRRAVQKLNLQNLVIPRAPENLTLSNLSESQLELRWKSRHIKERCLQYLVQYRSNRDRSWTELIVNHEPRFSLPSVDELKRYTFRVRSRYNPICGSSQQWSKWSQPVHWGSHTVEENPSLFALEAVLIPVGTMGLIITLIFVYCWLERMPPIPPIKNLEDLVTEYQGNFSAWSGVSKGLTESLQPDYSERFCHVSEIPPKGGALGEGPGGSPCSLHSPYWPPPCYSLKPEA
- Protocol Text: flow cytometry, 10 ug/ml antibody, MC/9 cells (endogenous mouse IL-2Rg)
Result Type: Raw MFI (MFI)
Answer in MFI, number only, no unit symbol.

H4H12886P (antibody, human IgG4 S228P, kappa, V domains shown, fully human anti-IL2Rg antibody, human IgG4) VH: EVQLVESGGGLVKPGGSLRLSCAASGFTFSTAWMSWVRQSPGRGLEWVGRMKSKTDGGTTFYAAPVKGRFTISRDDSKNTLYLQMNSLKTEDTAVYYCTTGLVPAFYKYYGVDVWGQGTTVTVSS VL: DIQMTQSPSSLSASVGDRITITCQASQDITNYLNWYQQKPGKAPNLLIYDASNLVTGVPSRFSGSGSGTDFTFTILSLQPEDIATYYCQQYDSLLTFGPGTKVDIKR; 185
H4H12889P (antibody, human IgG4 S228P, kappa, V domains shown, fully human anti-IL2Rg antibody, human IgG4; also called REGN7257) VH: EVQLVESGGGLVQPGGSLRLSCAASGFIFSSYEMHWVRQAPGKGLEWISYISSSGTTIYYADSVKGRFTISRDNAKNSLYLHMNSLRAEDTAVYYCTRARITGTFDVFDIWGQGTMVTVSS VL: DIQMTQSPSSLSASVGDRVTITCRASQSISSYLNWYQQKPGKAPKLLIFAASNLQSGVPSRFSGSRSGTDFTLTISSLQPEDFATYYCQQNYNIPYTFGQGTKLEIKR; 91

### Prompt Quick one: Raw MFI of H4H12874P (antibody, human IgG4 S228P, kappa, V domains shown, fully human anti-IL2Rg antibody, human IgG4) VH: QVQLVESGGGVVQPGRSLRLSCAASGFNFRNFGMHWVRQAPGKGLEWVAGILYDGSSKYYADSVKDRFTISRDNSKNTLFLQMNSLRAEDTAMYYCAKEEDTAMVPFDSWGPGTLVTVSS VL: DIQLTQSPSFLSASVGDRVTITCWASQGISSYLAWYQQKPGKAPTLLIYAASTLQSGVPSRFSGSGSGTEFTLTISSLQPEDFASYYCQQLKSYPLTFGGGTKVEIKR ?
### Response 202
